- TEST_DESCRIPTION: Pharmacokinetic studies, single dose IV, PO, SC, IP
- Type: in vivo, CD1 mice
- CONDITIONS: CD1, mouse, plasma, po, 10 mg/kg, PO 10 mg/kg; read-out: Plasma half-life (converted)

COMPOUND	UNITS_OF_MEASURE	half-life
Cc1cc(NC(=O)CCc2nnc(-c3ccccc3)o2)c(C)cc1N [IVMT-Rx-4]	h	1.37

====

- TEST_DESCRIPTION: Stability in liver microsomes with NADPH and UDPGA
- Assay type: in vitro ADME
- CONDITIONS: liver microsomes; all species (human, monkey, dog, rat, mouse), NADPH and UDPGA added; read-out: t½ in liver microsomes

SAMPLE_SMILES	half-life
Cc1cc(NC(=O)CCc2nnc(-c3ccccc3)o2)c(C)cc1N	> 3.5 h

====

- TEST_DESCRIPTION: Pharmacokinetic studies, single dose IV, PO, SC, IP
- Type: in vivo, CD1 mice
- CONDITIONS: CD1, mouse, plasma, ip, 10 mg/kg, IP 10 mg/kg; read-out: Plasma half-life (converted)

SAMPLE_SMILES	half-life / h
Cc1cc(NC(=O)CCc2nnc(-c3ccccc3)o2)c(C)cc1N	1.02

====

- System: CYP1A2, 2A6, 2B6, 2C8, 2C9, 2C19, 2D6 (the other isoforms of the panel)
- TEST_DESCRIPTION: Drug-substrate based CYP inhibition, other isoforms of the panel
- Assay type: in vitro ADME
- CONDITIONS: human liver microsomes; isoforms of the panel not given; read-out: Drug-substrate based CYP Inhibition, others
pIC50: −log10 of the molar value.
OUTCOME_MEASURE: pIC50

COMPOUND	RESULT
Cc1cc(NC(=O)CCc2nnc(-c3ccccc3)o2)c(C)cc1N [IVMT-Rx-4]	< 5.00

====

- TEST_DESCRIPTION: Pharmacokinetic studies, single dose IV, PO, SC, IP
- Format: in vivo, CD1 mice
- CONDITIONS: CD1, mouse, plasma, iv, 3 mg/kg, IV 3 mg/kg, mean of 3 mice; read-out: T1/2 (plasma half-life) (converted)

SAMPLE_SMILES	half-life
Cc1cc(NC(=O)CCc2nnc(-c3ccccc3)o2)c(C)cc1N	27 min

====

- TESTED_TARGET: CYP3A4 (Homo sapiens, UniProt P08684)
- Construct: in the presence of human liver microsomes
- Sequence (P08684 whole entry): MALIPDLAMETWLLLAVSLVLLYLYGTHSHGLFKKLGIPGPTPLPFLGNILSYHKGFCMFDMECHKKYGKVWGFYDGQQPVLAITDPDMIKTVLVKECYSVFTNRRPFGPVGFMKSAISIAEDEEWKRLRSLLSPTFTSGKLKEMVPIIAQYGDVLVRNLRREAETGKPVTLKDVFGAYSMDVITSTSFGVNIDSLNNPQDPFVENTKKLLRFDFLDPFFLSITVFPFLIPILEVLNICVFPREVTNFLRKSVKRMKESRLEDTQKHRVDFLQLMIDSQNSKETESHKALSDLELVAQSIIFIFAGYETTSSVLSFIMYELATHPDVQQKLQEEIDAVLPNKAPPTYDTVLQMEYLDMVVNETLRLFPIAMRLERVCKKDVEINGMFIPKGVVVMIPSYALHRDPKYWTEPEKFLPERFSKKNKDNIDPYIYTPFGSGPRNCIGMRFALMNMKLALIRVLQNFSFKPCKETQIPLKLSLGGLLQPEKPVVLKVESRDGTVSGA
- TEST_DESCRIPTION: Drug-substrate based CYP inhibition, 3A4
- CONDITIONS: human liver microsomes
- Method: IVMT-Rx-4 was incubated with selective probe substrates of each CYP isoform in the presence of human liver microsomes. The formation of metabolite was quantified using LC-MS/MS methods. The extent of inhibition was assessed by calculating the remaining enzyme activity and percent inhibition based on analyte-to-internal standard area ratios, using the following equations: Area Ratio = Peak AreaAnalyte / Peak AreaInternal Standard […]
OUTCOME_MEASURE: IC50

SAMPLE_SMILES	TESTED_TARGET	OUTCOME_MEASURE	RESULT
Cc1cc(NC(=O)CCc2nnc(-c3ccccc3)o2)c(C)cc1N	CYP3A4 (Homo sapiens, UniProt P08684)	IC50	~10 µM

====

- TEST_DESCRIPTION: Pharmacokinetic studies, single dose IV, PO, SC, IP
- Assay type: in vivo, CD1 mice
- CONDITIONS: CD1, mouse, plasma, sc, 10 mg/kg, SC 10 mg/kg; read-out: Plasma half-life (converted)
OUTCOME_MEASURE: half-life (min)

COMPOUND	OUTCOME_MEASURE	UNITS_OF_MEASURE	NUMERIC_RESULT
Cc1cc(NC(=O)CCc2nnc(-c3ccccc3)o2)c(C)cc1N [IVMT-Rx-4]	half-life	min	41.4
